- target-entity: Integrin alpha-IIb/beta-3 (Homo sapiens, UniProt P05106+P08514)
- Sequence (P05106 27-788 limits assumed): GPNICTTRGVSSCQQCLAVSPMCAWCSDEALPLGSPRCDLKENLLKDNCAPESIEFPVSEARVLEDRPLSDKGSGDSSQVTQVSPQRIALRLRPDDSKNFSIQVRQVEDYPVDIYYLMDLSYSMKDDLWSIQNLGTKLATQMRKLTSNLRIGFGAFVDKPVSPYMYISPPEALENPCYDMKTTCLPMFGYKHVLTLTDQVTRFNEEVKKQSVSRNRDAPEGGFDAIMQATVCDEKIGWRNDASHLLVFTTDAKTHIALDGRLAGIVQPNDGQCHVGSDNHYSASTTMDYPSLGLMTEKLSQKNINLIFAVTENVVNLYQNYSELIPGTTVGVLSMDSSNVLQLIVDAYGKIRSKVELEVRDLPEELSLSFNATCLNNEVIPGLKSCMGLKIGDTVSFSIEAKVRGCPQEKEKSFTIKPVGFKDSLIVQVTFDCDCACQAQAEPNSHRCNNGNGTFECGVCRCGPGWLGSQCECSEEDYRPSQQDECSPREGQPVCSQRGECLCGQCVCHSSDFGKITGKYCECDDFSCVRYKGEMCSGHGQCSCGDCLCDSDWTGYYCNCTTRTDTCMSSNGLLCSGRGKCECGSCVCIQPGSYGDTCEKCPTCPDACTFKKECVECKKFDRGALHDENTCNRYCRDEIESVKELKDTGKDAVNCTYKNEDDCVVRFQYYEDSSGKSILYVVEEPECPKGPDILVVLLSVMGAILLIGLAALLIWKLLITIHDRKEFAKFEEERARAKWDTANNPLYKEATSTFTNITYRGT
- Sequence (P08514 32-887 limits assumed): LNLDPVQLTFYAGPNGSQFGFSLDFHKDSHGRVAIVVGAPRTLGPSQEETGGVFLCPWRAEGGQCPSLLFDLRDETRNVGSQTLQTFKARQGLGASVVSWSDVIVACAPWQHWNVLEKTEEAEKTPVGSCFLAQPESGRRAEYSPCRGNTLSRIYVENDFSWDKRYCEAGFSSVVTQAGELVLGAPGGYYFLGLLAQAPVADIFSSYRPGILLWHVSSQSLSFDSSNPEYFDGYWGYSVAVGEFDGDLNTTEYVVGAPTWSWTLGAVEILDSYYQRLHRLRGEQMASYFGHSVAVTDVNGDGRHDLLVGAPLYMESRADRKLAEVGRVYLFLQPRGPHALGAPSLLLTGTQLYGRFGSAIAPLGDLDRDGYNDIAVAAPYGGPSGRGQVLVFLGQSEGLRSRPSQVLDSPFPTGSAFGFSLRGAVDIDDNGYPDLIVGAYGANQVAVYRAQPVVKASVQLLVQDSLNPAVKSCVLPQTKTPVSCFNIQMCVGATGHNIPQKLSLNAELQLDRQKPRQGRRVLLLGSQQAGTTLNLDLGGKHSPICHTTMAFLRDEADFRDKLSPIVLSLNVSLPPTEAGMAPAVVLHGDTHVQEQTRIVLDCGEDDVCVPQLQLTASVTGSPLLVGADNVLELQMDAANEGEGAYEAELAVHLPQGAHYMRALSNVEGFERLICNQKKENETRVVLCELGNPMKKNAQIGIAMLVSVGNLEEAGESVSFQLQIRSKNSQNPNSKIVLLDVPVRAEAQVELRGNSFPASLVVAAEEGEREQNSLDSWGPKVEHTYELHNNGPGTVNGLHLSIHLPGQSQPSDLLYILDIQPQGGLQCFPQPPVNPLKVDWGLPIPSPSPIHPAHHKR
- Sequence (P08514 891-1039 limits assumed): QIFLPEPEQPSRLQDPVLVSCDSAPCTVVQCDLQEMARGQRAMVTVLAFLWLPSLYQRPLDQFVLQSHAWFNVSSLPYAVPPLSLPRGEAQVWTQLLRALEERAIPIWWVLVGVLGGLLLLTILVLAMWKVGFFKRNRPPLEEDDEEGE
- method-description: In vitro inhibition of biotinylated fibrinogen binding to immobilized integrin alpha IIb beta3
- Type: protein-complex assay
endpoint: pIC50
// pIC50 is dimensionless: -log10 of concentration (M)

// fetch Integrin alpha-IIb/beta-3 (Homo sapiens, UniProt P05106+P08514) pIC50 for "O=C(O)CCNC(=O)[C@@H]1CCCN(C(=O)CCC2CCNCC2)C1"
8.22

// fetch Integrin alpha-IIb/beta-3 (Homo sapiens, UniProt P05106+P08514) pIC50 for O=C(O)C(O)CNC(=O)C1CCCN(C(=O)CCC2CCNCC2)C1 (centres undefined)
8.30

* * *

- target-entity: Integrin alpha-IIb/beta-3 (Homo sapiens, UniProt P05106+P08514)
- method-description: In vitro inhibition of biotinylated fibrinogen binding to immobilized integrin alpha IIb beta3
- Type: protein-complex assay
endpoint: pIC50
// pIC50 is dimensionless: -log10 of concentration (M)

Here is how some compounds turned out for pIC50.
compound="O=C(NCCc1nnn[nH]1)C1CCCN(C(=O)CCC2CCNCC2)C1 (stereo not given)" endpoint=pIC50 quantitative_readout=6.22
compound="O=C(O)CCNC(=O)C1CCCN(C(=O)CCC2CCNCC2)C1 (stereo not given)" endpoint=pIC50 quantitative_readout=8.22
compound=O=C(O)C[C@H](NC(=O)[C@@H]1CCCN(C(=O)CCC2CCNCC2)C1)c1cnc2ccccc2c1 endpoint=pIC50 quantitative_readout=10.00
compound=O=C(O)C[C@@H](C#Cc1ccccc1)NC(=O)[C@@H]1CCCN(C(=O)CCC2CCNCC2)C1 endpoint=pIC50 quantitative_readout=8.52
compound="O=C(NCCS(=O)(=O)O)C1CCCN(C(=O)CCC2CCNCC2)C1 (stereo not given)" endpoint=pIC50 quantitative_readout=6.70
compound=O=C(O)CCNC(=O)[C@H]1CCCN(C(=O)CCC2CCNCC2)C1 endpoint=pIC50 quantitative_readout=8.40
compound="O=C(O)CCNC(=O)C1CCCN(C(=O)CCN2CCNCC2)C1 (stereo not given)" endpoint=pIC50 quantitative_readout=8.70
compound=O=C(O)C[C@H](NC(=O)[C@@H]1CCCN(C(=O)CCC2CCNCC2)C1)c1cccs1 endpoint=pIC50 quantitative_readout=10.00

// below: pIC50 requested for another compound
For the compound shown here, "CC(C)(C)C#C[C@H](CC(=O)O)NC(=O)[C@@H]1CCCN(C(=O)CCC2CCNCC2)C1" , give the reported pIC50.
7.68

* * *

- target-entity: Integrin alpha-IIb/beta-3 (Homo sapiens, UniProt P05106+P08514)
- method-description: In vitro inhibition of biotinylated fibrinogen binding to immobilized integrin alpha IIb beta3
pIC50: −log10 of the molar value.
Threshold check on pIC50: at or above 8 gives 1.0, strictly below gives 0.0.

Solved entries:
compound="CC(CC(=O)O)NC(=O)C1CCCN(C(=O)CCC2CCNCC2)C1 (configuration not stated)" assigned_class=1.0
compound="COC(=O)C(CC(=O)O)NC(=O)C1CCCN(C(=O)CCC2CCNCC2)C1 (configuration not stated)" assigned_class=1.0
compound="O=C(O)CCNC(=O)C1CCCN(C(=O)NCC2CCNCC2)C1 (configuration not stated)" assigned_class=0.0

Hi, just wondering whether O=C(O)CCNC(=O)C1CCCN(S(=O)(=O)CCC2CCNCC2)C1 (configuration not stated) shows pIC50 of 8 or higher.
0.0

Hi, just wondering whether CN(CCC(=O)O)C(=O)C1CCCN(C(=O)CCC2CCNCC2)C1 (configuration not stated) shows pIC50 of 8 or higher.
0.0

Hi, just wondering whether "O=C(O)CCNC(=O)C1CCN(C(=O)CCC2CCNCC2)CC1" shows pIC50 of 8 or higher.
0.0

Hi, just wondering whether O=C(O)CCNC(=O)C1CCCN(C(=O)OCC2CCNCC2)C1 (configuration not stated) shows pIC50 of 8 or higher.
0.0

Hi, just wondering whether O=C(O)C1CCCC(NC(=O)C2CCCN(C(=O)CCC3CCNCC3)C2)C1 (configuration not stated) shows pIC50 of 8 or higher.
0.0

Hi, just wondering whether CC(C)CC(CC(=O)O)NC(=O)C1CCCN(C(=O)CCC2CCNCC2)C1 (configuration not stated) shows pIC50 of 8 or higher.
1.0

* * *

Listing of entries alongside the reported IC50.
- target-entity: Integrin alpha-IIb/beta-3 (Homo sapiens, UniProt P05106+P08514)
- method-description: In vitro inhibition of biotinylated fibrinogen binding to immobilized integrin alpha IIb beta3

Here is how some compounds turned out for IC50.
compound="O=C(O)CCNC(=O)C1CCN(C(=O)CCC2CCNCC2)C1 (stereo not drawn)" target_entity="Integrin alpha-IIb/beta-3 (Homo sapiens, UniProt P05106+P08514)" endpoint=IC50 result="7 nM"
compound="O=C(O)CCNC(=O)C1CCCCN(C(=O)CCC2CCNCC2)C1 (stereo not drawn)" target_entity="Integrin alpha-IIb/beta-3 (Homo sapiens, UniProt P05106+P08514)" endpoint=IC50 result="10 nM"

// below: IC50 requested for another compound
// fetch Integrin alpha-IIb/beta-3 (Homo sapiens, UniProt P05106+P08514) IC50 for O=C(O)C1CN(C(=O)C2CCCN(C(=O)CCC3CCNCC3)C2)CCC1=O (stereo not drawn)
9 nM
